experimental_system: EphA2 (Homo sapiens (Human))
Sequence (P29317 598-890): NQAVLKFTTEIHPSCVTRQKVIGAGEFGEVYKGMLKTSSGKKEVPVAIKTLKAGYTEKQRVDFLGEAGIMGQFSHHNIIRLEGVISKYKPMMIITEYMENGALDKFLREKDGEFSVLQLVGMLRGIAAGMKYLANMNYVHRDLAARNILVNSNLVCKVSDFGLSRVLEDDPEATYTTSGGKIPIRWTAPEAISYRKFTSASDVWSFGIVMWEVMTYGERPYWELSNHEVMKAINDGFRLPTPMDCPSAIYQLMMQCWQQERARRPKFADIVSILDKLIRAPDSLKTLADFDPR
assay_details: EphA2 kinase inhibition, luciferase-coupled chemiluminescent assay (LCCA)
condition_info: read-out: EphA2 IC50
observable: IC50

Below, 3 compounds whose answers are already recorded.
[
  {
    "compound": "COc1cc2c(Nc3cc(Cl)c(Br)cc3F)ncnc2cc1O[C@@H]1CO[C@@H]2[C@H]1OC[C@H]2F [Example 98]",
    "observable": "IC50",
    "value_reported": "< 50 nM"
  },
  {
    "compound": "COc1cc2c(Nc3ccc(Cl)c(Cl)c3)ncnc2cc1OCc1nc(-c2ccc(N3CCCC3)cc2)cs1 [Example 198]",
    "observable": "IC50",
    "value_reported": "< 50 nM"
  },
  {
    "compound": "COc1cc2c(Nc3ccc(Cl)c(Cl)c3)ncnc2cc1OCC1CN(C(C)C)CCO1 (stereo not drawn) [Example 270]",
    "observable": "IC50",
    "value_reported": "1000 to 20000 nM"
  }
]

What the record says about COc1cc2c(Nc3ccc(F)c(C(F)(F)F)c3)ncnc2cc1O[C@@H]1CO[C@@H]2[C@H]1OC[C@H]2F [Example 89] : IC50 is < 50 nM

What the record says about CCO[C@H]1CO[C@H]2[C@@H]1OC[C@@H]2Oc1cc2ncnc(Nc3ccc(Br)c(Cl)c3)c2cc1OC [Example 74] : IC50 is 1000 to 20000 nM
